Test system: SK-OV-3
protocolText: NCI tumour cell line growth inhibition, 48 h
The source made the active and inactive calls. No stated cut-off is given here; in the data, active = GI50 up to about 1.1 µM and inactive = higher.
valueType: GI50

molecule=c1ccc2c(CN3CCC(C4CCN(Cc5cccc6ccccc56)CC4)CC3)cccc2c1 valuetype=GI50 valuemeasured="28 µM (inactive)"
molecule=[N-]=[N+]=CC(=O)c1ccccc1C#CCCc1ccccc1 valuetype=GI50 valuemeasured="15.1 µM (inactive)"
molecule=COc1ccc(/N=C2\C(=O)Nc3ccc(Br)cc32)cc1 valuetype=GI50 valuemeasured="24.3 µM (inactive)"
molecule=CC(=O)OCCn1c(Cc2ccc([N+](=O)[O-])cc2)nn(C(C)=O)c1=O valuetype=GI50 valuemeasured="> 100 µM (inactive)"
molecule="O=C(CC(C(=O)c1ccsc1)c1ccsc1)c1ccsc1 (centres undefined)" valuetype=GI50 valuemeasured="59.4 µM (inactive)"
molecule=Cc1nc(Nc2ccc(Cl)cc2)sc1C(=O)Nc1cccc2c(=O)[nH][nH]c(=O)c12 valuetype=GI50 valuemeasured="52.6 µM (inactive)"
molecule="CC(=O)OCC1OC(n2cc(F)c(=O)[nH]c2=O)C(NC(=O)OCc2ccccc2)C(OC(C)=O)C1OC(C)=O (centres undefined)" valuetype=GI50 valuemeasured="> 100 µM (inactive)"
molecule=CCOC(=O)/C(=C/c1cccc(Cl)c1)N(CC)CC valuetype=GI50 valuemeasured="35.1 µM (inactive)"
molecule="O=C(CCC(=O)Nc1ccccc1C(F)(F)F)N/N=C1\\C(=N\\NC(=O)CCC(=O)Nc2ccccc2C(F)(F)F)C(c2ccc3c(c2)OCO3)Oc2ccccc21 (centres undefined)" valuetype=GI50 valuemeasured="20.7 µM (inactive)"

----------
Test system: UACC-257
protocolText: NCI tumour cell line growth inhibition, 48 h
Active and inactive are the calls of the source. No stated cut-off is given here; in the data, active = GI50 up to about 1.1 µM and inactive = higher.
GI50 values for the compounds below.
valueType: GI50

compound=Nc1nc(Nc2ccc(Cl)cc2)sc1C(=O)c1c[nH]c2ccccc12 valuetype=GI50 valuemeasured="7.26 µM (inactive)"
compound="COc1ccc(C2CC(c3c(O)ccc4ccccc34)=NN2C(C)=O)cc1OC (stereo unspecified)" valuetype=GI50 valuemeasured="34.8 µM (inactive)"
compound="CCCCCCCCCCC(C)CCCCCCC(=O)O (stereo unspecified)" valuetype=GI50 valuemeasured="> 100 µM (inactive)"
compound=[N-]=[N+]=CC(=O)c1ccccc1C#CCCc1ccccc1 valuetype=GI50 valuemeasured="23.9 µM (inactive)"
compound=O=c1c2ccccc2n2c(-c3ccc(O)cc3)nnc2n1-c1ccccc1 valuetype=GI50 valuemeasured="21.5 µM (inactive)"
compound=CCOC(=O)/C(=N/Nc1ccc(Cl)cc1)N1C(=S)N(C)N=C(C)C=C1S valuetype=GI50 valuemeasured="> 100 µM (inactive)"

----------
System: SK-MEL-5
protocolText: NCI tumour cell line growth inhibition, 48 h
Activity calls are given as the source filed them. No stated cut-off is given here; in the data, active = GI50 up to about 1.1 µM and inactive = higher.
valueType: GI50

compound="COC(=O)C1OC(O[C@H]2CC[C@]3(C)[C@H]4CC=C5[C@@H]6CC(C)(C)CC[C@]6(C(=O)OC6OCC(O)C(O)C6OC6OC(C)C(OC7OCC(O)C(O)C7O)C(OC7OCC(O)(CO)C7O)C6O)[C@H](O)C[C@@]5(C)[C@]4(C)CC[C@H]3C2(C)C)C(O)C(O)C1O (stereo partly drawn)" experimentaltarget=SK-MEL-5 valuetype=GI50 valuemeasured="4.65 µM (inactive)"
compound="C=C1C(=O)C23CC1C[C@H](OC(C)=O)[C@H]2C1(C)C(OC(C)=O)C[C@H](O)C(C)(C)[C@H]1C(=O)[C@@H]3OC(C)=O (stereo partly drawn)" experimentaltarget=SK-MEL-5 valuetype=GI50 valuemeasured="13.9 µM (inactive)"
compound=c1ccc2c(CN3CCC(C4CCN(Cc5cccc6ccccc56)CC4)CC3)cccc2c1 experimentaltarget=SK-MEL-5 valuetype=GI50 valuemeasured="4.89 µM (inactive)"
compound="CC1=CCP(C(F)(F)F)P(C(F)(F)F)C1 (stereo not drawn)" experimentaltarget=SK-MEL-5 valuetype=GI50 valuemeasured="> 100 µM (inactive)"
compound=O=C(Nc1ccc2ccccc2c1)c1cc2cc(CCl)ccc2oc1=O experimentaltarget=SK-MEL-5 valuetype=GI50 valuemeasured="> 100 µM (inactive)"
compound=Cc1c(NC(=O)CSC(=S)N(C)C)c(=O)n(-c2ccccc2)n1C experimentaltarget=SK-MEL-5 valuetype=GI50 valuemeasured="> 100 µM (inactive)"
compound=c1ccc2c(Cc3nnc4sc(SSc5nn6c(Cc7c[nH]c8ccccc78)nnc6s5)nn34)c[nH]c2c1 experimentaltarget=SK-MEL-5 valuetype=GI50 valuemeasured="11.2 µM (inactive)"
compound=CCCCc1c(O)nc(Nc2nc3ccccc3[nH]2)[nH]c1=O experimentaltarget=SK-MEL-5 valuetype=GI50 valuemeasured="> 100 µM (inactive)"

----------
Test system: HCT-116
protocolText: NCI tumour cell line growth inhibition, 48 h
Active and inactive are the calls of the source. Cut-off read from the data, not from the text of the source: active = GI50 up to about 1.1 µM and inactive = higher.
Possible outcomes: 1 (active), 0 (inactive)

compound=COc1ccc2c(c1)CCc1cc(OC)ccc1/[N+]([O-])=[N+]\2[O-] experimentaltarget=HCT-116 assignedclass=0
compound=N#C/N=C(/N)NCN/C(N)=N\C#N experimentaltarget=HCT-116 assignedclass=0
compound=CCO/C=N\C1=C(C#N)SC2=N/C(=C\c3ccco3)C(=O)N21 experimentaltarget=HCT-116 assignedclass=0
compound="O=C(Nc1cccc(C(F)(F)F)c1)C(=O)C(C(=O)c1ccc(Cl)c(Cl)c1)C1OC(=O)c2ccccc21 (configuration not stated)" experimentaltarget=HCT-116 assignedclass=0
compound=CCOC(=O)c1c(C)noc1/N=N/N(CCO)CCO experimentaltarget=HCT-116 assignedclass=0
compound="COc1cccc(C2CC23C(=O)NC(=O)NC3=O)c1 (configuration not stated)" experimentaltarget=HCT-116 assignedclass=0
compound=O=C(NNC(=O)c1c(Cl)c(Cl)c(Cl)c(Cl)c1-c1nc2ccccc2[nH]1)c1ccc(Cl)cc1 experimentaltarget=HCT-116 assignedclass=0
compound=CC1=C(C(=O)Nc2ccccc2)C(c2ccc(Cl)c(Cl)c2)C(C(=O)Nc2ccccc2)=C(C)N1 experimentaltarget=HCT-116 assignedclass=0
compound="Cc1ccc(C2(C)NC(=S)N(NC(N)=S)C2=S)cc1 (configuration not stated)" experimentaltarget=HCT-116 assignedclass=0
compound=C/C(CC(=O)Nc1ccc([N+](=O)[O-])cc1)=N/N=C(N)N experimentaltarget=HCT-116 assignedclass=0
compound=Cc1cc(S(=O)(=O)O)c(NC(=O)C(=O)Cc2cc(=O)oc3cc(O)ccc23)cc1Cl experimentaltarget=HCT-116 assignedclass=0
compound="CC1(C)CC2(C)CC1CC2(O)c1ccccc1 (configuration not stated)" experimentaltarget=HCT-116 assignedclass=0
compound=O=S(=O)(C/C(=N\O)c1ccccc1)c1ccccc1 experimentaltarget=HCT-116 assignedclass=0
compound=Cc1ccc(-c2c(C#N)c(-c3ccc([N+](=O)[O-])cc3)c(C#N)c(=O)n2NS(=O)(=O)c2ccccc2)cc1 experimentaltarget=HCT-116 assignedclass=0
compound=CC(=O)/C(=N\O)C(=O)NCCc1ccccc1 experimentaltarget=HCT-116 assignedclass=0
compound=COc1cccc(-c2cc(O)c3c(C)cc(C)nc3n2)c1 experimentaltarget=HCT-116 assignedclass=1
compound=O=Cc1c(C(=O)O)[nH]c(=O)[nH]c1=O experimentaltarget=HCT-116 assignedclass=0
compound=CCCCCCCCCCCCCC[S+](C)C experimentaltarget=HCT-116 assignedclass=0
compound=C#CCn1c(=O)c(C)cn(/C(=C\C(=O)OCC)C(=O)OCC)c1=O experimentaltarget=HCT-116 assignedclass=0
compound=CCCCN1C(=O)C[C@H]2[C@@H]3CCc4cc(OCCN5CCCC5)ccc4[C@H]3CC[C@]2(C)C1=O experimentaltarget=HCT-116 assignedclass=0
compound="CC(=O)NC1C(OCc2ccccc2)OC(CO)C(O)C1OCC(=O)N1CCCC1C(=O)N[C@@H](CCC(=O)NCCCCNc1c2ccccc2nc2cccc([N+](=O)[O-])c12)C(N)=O (some centres not stated)" experimentaltarget=HCT-116 assignedclass=0
compound="O=C(c1ccc(O)cc1)C1c2c3c(cc(O)c2C(c2ccc(O)cc2)C1c1cc(O)cc(O)c1)OC(c1ccc(O)cc1)C3c1cc2c(cc1O)OC(c1ccc(O)cc1)C2c1cc(O)cc(O)c1 (configuration not stated)" experimentaltarget=HCT-116 assignedclass=0
compound=CCCc1ccc(/N=C\c2cc(OC)c(OC)c(OC)c2)cc1 experimentaltarget=HCT-116 assignedclass=0
compound=C1CCCN(NC2=NCCO2)CC1 experimentaltarget=HCT-116 assignedclass=0
compound="CC(C)CCNC(=O)C(CC(C)C)NC(=O)[C@H]1O[C@@H]1C(=O)O (some centres not stated)" experimentaltarget=HCT-116 assignedclass=0
compound=CCCCCCCCC[n+]1cccc(C2C(C(=O)OCC)=C(C)NC(C)=C2C(=O)OCC)c1 experimentaltarget=HCT-116 assignedclass=0
compound=CC(=O)n1nc(-c2ccccc2)n(/N=C/c2ccc([N+](=O)[O-])o2)c1=O experimentaltarget=HCT-116 assignedclass=0
compound=COC(=O)c1ccccc1/C=C1\Cc2ccc3c(c2C1=O)CCC3 experimentaltarget=HCT-116 assignedclass=0
compound="COC(=O)C1OC(O[C@H]2CC[C@]3(C)[C@H]4CC=C5[C@@H]6CC(C)(C)CC[C@]6(C(=O)OC6OCC(O)C(O)C6OC6OC(C)C(OC7OCC(O)C(O)C7O)C(OC7OCC(O)(CO)C7O)C6O)[C@H](O)C[C@@]5(C)[C@]4(C)CC[C@H]3C2(C)C)C(O)C(O)C1O (some centres not stated)" experimentaltarget=HCT-116 assignedclass=0
compound=COC(=O)[C@@H]1Cc2c([nH]c3ccccc23)[C@H](c2ccccc2)N1 experimentaltarget=HCT-116 assignedclass=0
compound=CCCOc1cc2c(cc1O)CC[C@@H]1[C@@H]2CC[C@]2(C)[C@@H](O)CC[C@@H]12 experimentaltarget=HCT-116 assignedclass=0
compound="CO[C@@H]1[C@@H](OC2OC(C)C(OC3CC(C)(O)C(OC(=O)CC(C)C)C(C)O3)C(N(C)C)C2O)[C@@H](CC=O)C[C@@H](C)C(=O)/C=C/C2O[C@H]2C[C@@H](C)OC(=O)C[C@H]1OC(C)=O (some centres not stated)" experimentaltarget=HCT-116 assignedclass=0
compound=Nc1nc(Nc2ccc(Cl)cc2)sc1C(=O)c1c[nH]c2ccccc12 experimentaltarget=HCT-116 assignedclass=0
compound=CCOC(=O)/C(=C/c1cccc(Cl)c1)N(CC)CC experimentaltarget=HCT-116 assignedclass=0
compound="COc1cc(/C=C2\\CCC(C)c3c2nc(N)c(C#N)c3-c2cc(OC)c(OC)c(OC)c2)cc(OC)c1OC (configuration not stated)" experimentaltarget=HCT-116 assignedclass=0
compound=Oc1ccc(Cn2c(-c3ccc(O)c(O)c3)nc3ccccc32)cc1O experimentaltarget=HCT-116 assignedclass=0
compound=CN(C)CCCCN1CCc2c(n(C)c3ccccc23)C1=O experimentaltarget=HCT-116 assignedclass=0
